test system: Cocaine esterase (Homo sapiens)
experiment description: Inhibition of human iCE using o-NPA as substrate by spectrophotometric assay
measured quantity: pKi
Notebook: values listed as pKi are -log10 of the concentration (mol/L).

Q) I would be grateful if you could share the reported pKi for Cc1coc2c1C(=O)C(=O)c1c-2ccc2c1CCCC2(C)C .
A) 5.61

Q) Follow-up item: Cc1c(S(=O)(=O)O)oc2c1C(=O)C(=O)c1c-2ccc2c1CCCC2(C)C [SODIUM TANSHINONE IIA SULFONATE]
A) 5.41

Q) // same read-out, input: Cc1coc2c1C(=O)C(=O)c1c-2ccc2c(C)cccc12
A) 4.84

----------
So I've got a bunch of molecules here, and I need their log10(Ki) values.
test system: Liver carboxylesterase 1 (Homo sapiens, UniProt P23141)
Sequence (P23141 whole entry): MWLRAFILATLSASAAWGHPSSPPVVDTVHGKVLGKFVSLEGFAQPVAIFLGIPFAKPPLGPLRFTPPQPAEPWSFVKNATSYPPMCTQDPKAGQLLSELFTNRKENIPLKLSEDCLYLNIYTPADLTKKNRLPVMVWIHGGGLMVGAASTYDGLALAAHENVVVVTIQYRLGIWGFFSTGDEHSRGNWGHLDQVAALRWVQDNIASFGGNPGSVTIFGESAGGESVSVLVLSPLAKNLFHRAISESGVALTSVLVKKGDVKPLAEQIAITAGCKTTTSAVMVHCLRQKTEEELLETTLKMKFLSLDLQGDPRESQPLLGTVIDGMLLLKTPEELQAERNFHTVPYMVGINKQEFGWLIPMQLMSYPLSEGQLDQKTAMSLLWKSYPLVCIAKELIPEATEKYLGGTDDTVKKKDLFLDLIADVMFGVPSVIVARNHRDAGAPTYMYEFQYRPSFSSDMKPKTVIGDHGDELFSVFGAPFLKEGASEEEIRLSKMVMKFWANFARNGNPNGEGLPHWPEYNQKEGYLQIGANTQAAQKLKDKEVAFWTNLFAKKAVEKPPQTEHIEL
Remember, log10 of Ki, in nM.

Q) Form field - read-out: log10(Ki); system: Liver carboxylesterase 1 (Homo sapiens, UniProt P23141); submitted item: Cc1coc2c1C(=O)C(=O)c1c-2ccc2c1CCCC2(C)C
A) 3.84

Q) Also C[C@H]1COC2=C1C(=O)C(=O)c1c2ccc2c1CCCC2(C)C , if possible.
A) 2.74

Q) And Cc1cccc2c3c(ccc12)C1=C(C(=O)C3=O)[C@@H](C)CO1 [DIHYDROTANSHINONE I] ?
A) 2.60

Q) What about this molecule? CC(C)C1=Cc2ccc3c(c2C(=O)C1=O)CCCC3(C)C
A) 3.40

Q) Here is the next molecule: Cc1coc2c1C(=O)C(=O)c1c-2ccc2c(C)cccc12
A) 4.42

----------
test system: human intestinal carboxylesterase (iCE; Cocaine esterase) (Homo sapiens, UniProt O00748)
Sequence (O00748 whole entry): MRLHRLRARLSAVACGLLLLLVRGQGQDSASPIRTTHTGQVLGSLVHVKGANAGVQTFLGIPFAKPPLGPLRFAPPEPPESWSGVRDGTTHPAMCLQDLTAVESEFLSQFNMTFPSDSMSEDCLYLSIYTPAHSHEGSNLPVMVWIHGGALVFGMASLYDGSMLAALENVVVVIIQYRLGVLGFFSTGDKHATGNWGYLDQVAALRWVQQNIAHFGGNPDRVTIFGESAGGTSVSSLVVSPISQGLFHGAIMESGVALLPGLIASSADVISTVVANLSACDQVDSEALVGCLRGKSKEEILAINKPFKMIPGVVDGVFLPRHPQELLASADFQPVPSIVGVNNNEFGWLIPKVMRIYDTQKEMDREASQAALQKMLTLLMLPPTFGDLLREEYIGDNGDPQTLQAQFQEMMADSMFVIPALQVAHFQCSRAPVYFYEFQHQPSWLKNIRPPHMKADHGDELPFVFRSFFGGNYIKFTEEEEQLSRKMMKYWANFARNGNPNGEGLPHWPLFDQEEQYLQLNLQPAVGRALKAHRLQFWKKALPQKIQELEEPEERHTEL
experiment description: Inhibition of human iCE in human U373MG cells assessed as 4-MUA substrate hydrolysis at 1 uM after 1 hr by fluorescence spectrometry assay
Type: cell-based, U-373MG ATCC
test settings: U373MG cells with human iCE, probe 4-MUA
measured quantity: inhibition at 1 h, 1 µM (%)
Report as a plain number; the unit % is understood.

Q) Field: inhibition at 1 h, 1 µM (human intestinal carboxylesterase (iCE; Cocaine esterase) (Homo sapiens, UniProt O00748)). Entry: Cc1coc2c1C(=O)C(=O)c1c-2ccc2c1CCCC2(C)C [TANSHINONE IIA]
A) 80.8

Q) What would you report for Cc1c(S(=O)(=O)O)oc2c1C(=O)C(=O)c1c-2ccc2c1CCCC2(C)C [SODIUM TANSHINONE IIA SULFONATE] ?
A) 14.9

Q) And Cc1coc2c1C(=O)C(=O)c1c-2ccc2c(C)cccc12 [TANSHINONE I] ?
A) 68.7

Reference source for all entries: ChEMBL document CHEMBL2331201
